In this section, each of the substances is paired with its reported % inhibition.
System: human TGF-beta1 mRNA
Assay remarks: Antisense inhibition of human TGF-beta1 mRNA in HuVEC cells, single 10 nM dose, Lipofectamine 2000 (Example 2)
Type: cell-based
Particulars: 10 nM oligonucleotide, HuVEC, relative to untreated control cells; gapmers targeted to SEQ ID NO: 2
In the oligonucleotide strings, read from the 5' end, every base follows the letter of its sugar. An asterisk marks phosphorothioate; unmarked linkages are phosphodiester. Other units and linkages are bracketed, terminal groups are in braces. A string of capitals states the bases alone. e = 2'-O-(2-methoxyethyl) (MOE); [5mC] = 5-methylcytosine; d = 2'-deoxy (DNA)
Measured attribute: % inhibition

{"Substance": "414088 (antisense eT*eT*d[5mC]*dT*dA*dG*d[5mC]*dA*dT*dT*d[5mC]*dT*dA*dG*dA*eA*eT*e[5mC]*e[5mC]*e[5mC]) [compound 414088]", "Tgt": "human TGF-beta1 mRNA", "Reported value": "66%"}
{"Substance": "414113 (antisense eT*e[5mC]*dT*dG*dG*dG*dA*dA*dA*dA*dA*dG*dA*dG*dT*e[5mC]*e[5mC]*eT*eG*eG) [compound 414113]", "Tgt": "human TGF-beta1 mRNA", "Reported value": "79%"}
{"Substance": "414072 (antisense eG*e[5mC]*d[5mC]*dG*dA*dA*dG*dG*dT*dG*dT*dT*dT*dT*d[5mC]*eT*eT*eG*e[5mC]*e[5mC]) [compound 414072]", "Tgt": "human TGF-beta1 mRNA", "Reported value": "48%"}

====

Test system: human TGF-beta1 mRNA
Assay remarks: Dose-dependent antisense inhibition of human TGF-beta1 in HuVEC cells, Lipofectamine 2000, 0.9375-30 nM (Example 3)
Format: cell-based
Particulars: 1.875 nM, Lipofectamine 2000
In the oligonucleotide strings, read from the 5' end, every base follows the letter of its sugar. An asterisk marks phosphorothioate; unmarked linkages are phosphodiester. Other units and linkages are bracketed, terminal groups are in braces. A string of capitals states the bases alone. e = 2'-O-(2-methoxyethyl) (MOE); [5mC] = 5-methylcytosine; d = 2'-deoxy (DNA)

{"Substance": "414037 (antisense eG*eG*dG*dT*dG*dT*d[5mC]*d[5mC]*dT*dT*dA*dA*dA*dT*dA*e[5mC]*eA*eG*e[5mC]*e[5mC]) [compound 414037]", "percent inhibition of TGF-beta1 [%]": 74}
{"Substance": "414022 (antisense eG*eG*dG*d[5mC]*dT*d[5mC]*d[5mC]*dG*dG*dT*dT*d[5mC]*dT*dG*d[5mC]*eA*e[5mC]*eT*e[5mC]*eT) [compound 414022]", "percent inhibition of TGF-beta1 [%]": 50}
{"Substance": "414035 (antisense GTCCTTAAATACAGCCCCCA; sugars from the 5' end e2 d13 e5, backbone and methylation of C not given here) [compound 414035]", "percent inhibition of TGF-beta1 [%]": 75}
{"Substance": "413979 (antisense eG*eG*d[5mC]*dT*d[5mC]*d[5mC]*d[5mC]*dA*dG*d[5mC]*dG*dG*d[5mC]*dA*dA*e[5mC]*eG*eG*eA*eA) [compound 413979]", "percent inhibition of TGF-beta1 [%]": 62}
{"Substance": "414058 (antisense eA*eG*dG*dT*d[5mC]*dA*dA*dG*d[5mC]*d[5mC]*dA*dT*dG*dT*dG*eG*e[5mC]*eA*e[5mC]*e[5mC]) [compound 414058]", "percent inhibition of TGF-beta1 [%]": 65}
{"Substance": "413982 (antisense GCCTCCGGCTCCCAGCGGCA; sugars from the 5' end e2 d13 e5, backbone and methylation of C not given here) [compound 413982]", "percent inhibition of TGF-beta1 [%]": 77}
{"Substance": "413970 (antisense eG*e[5mC]*d[5mC]*dT*d[5mC]*dA*dG*dG*d[5mC]*dT*dG*d[5mC]*dT*d[5mC]*d[5mC]*eT*e[5mC]*eG*eG*e[5mC]) [compound 413970]", "percent inhibition of TGF-beta1 [%]": 64}
{"Substance": "414036 (antisense GTGTCCTTAAATACAGCCCC; sugars from the 5' end e2 d13 e5, backbone and methylation of C not given here) [compound 414036]", "percent inhibition of TGF-beta1 [%]": 75}
{"Substance": "414040 (antisense e[5mC]*eT*d[5mC]*dT*d[5mC]*dT*d[5mC]*d[5mC]*dA*dT*d[5mC]*dT*dT*dT*dA*eA*eT*eG*eG*eG) [compound 414040]", "percent inhibition of TGF-beta1 [%]": 83}
{"Substance": "414102 (antisense eT*eT*dT*dG*dA*dA*d[5mC]*dT*dA*d[5mC]*dA*dT*dG*dG*dG*eT*e[5mC]*e[5mC]*eT*e[5mC]) [compound 414102]", "percent inhibition of TGF-beta1 [%]": 54}
